The measured values listed here are drawn from paper PMC3794980.

# TARGET OF ASSAY: DRB4*0101 (Homo sapiens, UniProt P01903+P13762, G164S)
# TEST: biochemical
compounds and their reported IC50
Field: numeric (nM). Do not append units.

QUERY SMILES | READOUT UNIT | IC50
CC[C@H](C)[C@H](NC(=O)[C@H](Cc1c[nH]c2ccccc12)NC(=O)[C@H](Cc1ccc(O)cc1)NC(=O)CNC(=O)[C@H](CCSC)NC(=O)[C@H](CC(=O)O)NC(=O)[C@H](C)NC(=O)[C@H](Cc1c[nH]cn1)NC(=O)[C@@H](NC(=O)[C@H](C)N)C(C)C)C(=O)N[C@@H](CCC(=O)O)C(=O)N[C@@H](CO)C(=O)N[C@@H](CCC(N)=O)C(=O)N[C@@H](CCCCN)C(=O)N[C@@H](CC(N)=O)C(=O)O | nM | 180

Next compound, IC50 to be filled in.
Provide IC50 value for the following compound: CC(C)C[C@H](N)C(=O)N[C@H](C(=O)N[C@@H](Cc1ccc(O)cc1)C(=O)N[C@@H](CCC(N)=O)C(=O)N[C@@H](CC(N)=O)C(=O)N[C@@H](CCCCN)C(=O)N[C@H](C(=O)N[C@H](C(=O)N[C@@H](CCCCN)C(=O)N[C@H](C(=O)N[C@@H](CCC(N)=O)C(=O)N[C@@H](CCCNC(=N)N)C(=O)N1CCC[C@H]1C(=O)N[C@H](C(=O)N1CCC[C@H]1C(=O)N[C@@H](CCCCN)C(=O)NCC(=O)O)[C@@H](C)O)C(C)C)C(C)C)C(C)C)[C@@H](C)O
13
